- Test system: barnyardgrass (Echinochloa crus-galli)
- Test Details: Test A preemergence soil spray, visual injury rating 0-100
- Format: in vivo
- Setup Conditions: 125 g ai/ha, 10 days, 0 = no effect, 100 = complete control
Assay Readout: Barnyardgrass plant response rating (0 to 100 scale)

Compound | Result
CCOC(=O)C1=CCC(NC(=O)C2(C)CN(c3cc(F)cc(F)c3)C(=O)O2)C1 (stereo not drawn) | 100
CC1(C(=O)NC2CC=C(C(=O)O)C2)CN(c2cc(F)cc(F)c2)C(=O)O1 (stereo not drawn) | 40
CC1(C(=O)NC2C=CC(C(=O)OC3CCCC3)C2)CN(c2cc(F)cc(F)c2)C(=O)O1 (stereo not drawn) | 100
CC1(C(=O)NC2CC=C(C(=O)OCC(F)(F)F)C2)CN(c2cc(F)cc(F)c2)C(=O)O1 (stereo not drawn) | 100
CC(C)OC(=O)C1C=CC(NC(=O)C2(C)CN(c3cc(F)cc(Cl)c3)C(=O)O2)C1 (stereo not drawn) | 100

Returns the measured Barnyardgrass plant response rating (0 to 100 scale) for the input compound. Input: COC(=O)C1=CCC(NC(=O)C2(C)CN(c3cc(F)cc(F)c3)C(=O)O2)C1 (single isomer, unassigned) [Compound 20]
0

Returns the measured Barnyardgrass plant response rating (0 to 100 scale) for the input compound. Input: CC1(C(=O)NC2C=CC(C(=O)OCC(F)(F)F)C2)CN(c2cc(F)cc(F)c2)C(=O)O1 (stereo not drawn)
100

Returns the measured Barnyardgrass plant response rating (0 to 100 scale) for the input compound. Input: CC1(C(=O)NC2C=CC(C(=O)O)C2)CN(c2cc(Cl)cc(Cl)c2)C(=O)O1 (stereo not drawn)
100

Returns the measured Barnyardgrass plant response rating (0 to 100 scale) for the input compound. Input: CSCCOC(=O)C1C=CC(NC(=O)C2(C)CN(c3cc(Cl)cc(Cl)c3)C(=O)O2)C1 (stereo not drawn) [Compound 45]
100

Returns the measured Barnyardgrass plant response rating (0 to 100 scale) for the input compound. Input: CSCCOC(=O)C1=CCC(NC(=O)C2(C)CN(c3cc(F)cc(F)c3)C(=O)O2)C1 (stereo not drawn)
100

Returns the measured Barnyardgrass plant response rating (0 to 100 scale) for the input compound. Input: CCOC(=O)C1CCC(NC(=O)C2(C)CN(c3cc(F)cc(F)c3)C(=O)O2)C1 (stereo not drawn)
100

Returns the measured Barnyardgrass plant response rating (0 to 100 scale) for the input compound. Input: COC(=O)C1=CCC(NC(=O)C2(C)CN(c3cc(F)cc(F)c3)C(=O)O2)C1 (stereo not drawn) [Compound 21]
100

* * *

Reported Amaranth, Palmer / Pigweed, Palmer plant response rating (0 to 100 scale) values follow for various compounds
- Test system: palmer (palmer amaranth, palmer pigweed, Amaranthus palmeri)
- Test Details: Test A postemergence application, visual injury rating 0-100
- Format: in vivo
- Setup Conditions: Postemergence, 125 g ai/ha, 10 days; 0 is no effect, 100 is complete control
Form: value (number only, do not type unit).

Compound | Quantitative Result
CSCCOC(=O)C1C=CC(NC(=O)C2(C)CN(c3cc(Cl)cc(Cl)c3)C(=O)O2)C1 (centres unmarked) [Compound 45] | 100
COC(=O)COC(=O)C1C=CC(NC(=O)C2(C)CN(c3cc(Cl)cc(Cl)c3)C(=O)O2)C1 (centres unmarked) | 90
COC(=O)C1CCC(NC(=O)C2(C)CN(c3cc(F)cc(F)c3)C(=O)O2)C1 (centres unmarked) | 80
CC1(C(=O)NC2C=CC(C(=O)NS(=O)(=O)C(C)(C)C)C2)CN(c2cc(F)cc(F)c2)C(=O)O1 (centres unmarked) | 70
CONC(=O)C1C=CC(NC(=O)C2(C)CN(c3cc(F)cc(F)c3)C(=O)O2)C1 (centres unmarked) | 90

Notebook: pull reported Amaranth, Palmer / Pigweed, Palmer plant response rating (0 to 100 scale) for palmer (palmer amaranth, palmer pigweed, Amaranthus palmeri), entry CC1(C(=O)NC2CC=C(C(=O)OCC(F)(F)F)C2)CN(c2cc(Cl)cc(Cl)c2)C(=O)O1 (centres unmarked)
90

Notebook: pull reported Amaranth, Palmer / Pigweed, Palmer plant response rating (0 to 100 scale) for palmer (palmer amaranth, palmer pigweed, Amaranthus palmeri), entry CC1(C(=O)NC2C=CC(C(=O)O)C2)CN(c2cc(F)cc(Cl)c2)C(=O)O1 (centres unmarked)
90

Notebook: pull reported Amaranth, Palmer / Pigweed, Palmer plant response rating (0 to 100 scale) for palmer (palmer amaranth, palmer pigweed, Amaranthus palmeri), entry CC1(C(=O)NC2C=CC(C(=O)OCCS(C)(=O)=O)C2)CN(c2cc(F)cc(F)c2)C(=O)O1 (centres unmarked)
90

* * *

- Tested on: ryegrass, Italian (italian ryegrass, Lolium multiflorum)
- Test Details: Test A preemergence soil spray, visual injury rating 0-100
- Type: in vivo
- Setup Conditions: 62 g ai/ha, 10 days, 0 = no effect, 100 = complete control
- Excerpt: […]
Reported Ryegrass, Italian plant response rating (0-100) values follow for various compounds
Form: value (number only, do not type unit).

Sample records with Ryegrass, Italian plant response rating (0-100):
Compound | Assay System | Quantitative Result
CC1(C(=O)NC2CC=C(C(=O)O)C2)CN(c2cc(Cl)cc(Cl)c2)C(=O)O1 (centres unmarked) | ryegrass, Italian (italian ryegrass, Lolium multiflorum) | 0
COC(=O)COC(=O)C1=CCC(NC(=O)C2(C)CN(c3cc(Cl)cc(Cl)c3)C(=O)O2)C1 (centres unmarked) [Compound 109] | ryegrass, Italian (italian ryegrass, Lolium multiflorum) | 0
C=CC1(C(=O)NC2C=CC(C(=O)O)C2)CN(c2cc(F)cc(F)c2)C(=O)O1 (mixture of isomers) | ryegrass, Italian (italian ryegrass, Lolium multiflorum) | 90
CCOC(=O)C1=CCC(NC(=O)C2(C)CN(c3cc(F)cc(F)c3)C(=O)O2)C1 (centres unmarked) | ryegrass, Italian (italian ryegrass, Lolium multiflorum) | 80
COC(=O)C1CC(NC(=O)C2(C)CN(c3cc(F)cc(F)c3)C(=O)O2)C1 (centres unmarked) [Compound 117] | ryegrass, Italian (italian ryegrass, Lolium multiflorum) | 70
CC(C)OC(=O)C1=CCC(NC(=O)C2(C)CN(c3cc(Cl)cc(Cl)c3)C(=O)O2)C1 (centres unmarked) | ryegrass, Italian (italian ryegrass, Lolium multiflorum) | 0
C=CC1(C(=O)NC2COC(C(=O)OC)C2)CN(c2cc(F)cc(F)c2)C(=O)O1 (centres unmarked) [Compound 171] | ryegrass, Italian (italian ryegrass, Lolium multiflorum) | 90

For the next question, use this compound.
Returns the measured Ryegrass, Italian plant response rating (0-100) for the input compound. Input: CC(C)COC(=O)C1=CCC(NC(=O)C2(C)CN(c3cc(F)cc(F)c3)C(=O)O2)C1 (centres unmarked)
0

* * *

- System: wheat (Triticum aestivum)
- Test Details: Test A postemergence application, visual injury rating 0-100
- Assay type: in vivo
- Setup Conditions: Postemergence, 16 g ai/ha, greenhouse 10 days; 0 no effect, 100 complete control
Reported Wheat plant response rating (0 to 100 scale) values follow for various molecules

Molecule | Assay System | Result
CC1(C(=O)NC2C=CC(C(=O)NO)C2)CN(c2cc(F)cc(F)c2)C(=O)O1 (stereo not drawn) | wheat (Triticum aestivum) | 0
COC(=O)C1=CCC(NC(=O)C2(C)CN(c3cc(Cl)cc(Cl)c3)C(=O)O2)C1 (stereo not drawn) [Compound 149] | wheat (Triticum aestivum) | 80
CC1(C(=O)NC2CC=C(C(=O)OCC(F)F)C2)CN(c2cc(F)cc(F)c2)C(=O)O1 (stereo not drawn) | wheat (Triticum aestivum) | 0
COC(=O)C1CC(NC(=O)C2(C)CN(c3cc(F)cc(F)c3)C(=O)O2)C1 (stereo not drawn) [Compound 117] | wheat (Triticum aestivum) | 50
COC(=O)COC(=O)C1=CCC(NC(=O)C2(C)CN(c3cc(Cl)cc(Cl)c3)C(=O)O2)C1 (stereo not drawn) | wheat (Triticum aestivum) | 50

For the next question, use this molecule.
Returns the measured Wheat plant response rating (0 to 100 scale) for the input molecule. Input: CC(C)OC(=O)C1=CCC(NC(=O)C2(C)CN(c3cc(Cl)cc(Cl)c3)C(=O)O2)C1 (stereo not drawn)
0

* * *

- System: ragweed (common ragweed, Ambrosia artemisiifolia)
- Test Details: Test A postemergence application, visual injury rating 0-100
- Format: in vivo
- Setup Conditions: Postemergence, 16 g ai/ha, greenhouse 10 days; 0 no effect, 100 complete control
Reported Ragweed plant response rating (0 to 100 scale) values follow for various compounds
Form: value (number only, do not type unit).

Returns the measured Ragweed plant response rating (0 to 100 scale) for the input compound. Input: CC1(C(=O)NC2CC=C(C(=O)NS(=O)(=O)C3CC3)C2)CN(c2cc(F)cc(F)c2)C(=O)O1 (racemic)
0

Returns the measured Ragweed plant response rating (0 to 100 scale) for the input compound. Input: CC(C)OC(=O)C1=CCC(NC(=O)C2(C)CN(c3cc(Cl)cc(Cl)c3)C(=O)O2)C1 (stereo not shown) [Compound 106]
0
